Cited source for all entries: patent US10597388B2

Tested on: morningglory (Ipomoea coccinea)
Assay: Test C greenhouse herbicide test, pre- and postemergence
Format: in vivo
Settings: Preemergence, 31 g ai/ha; scale 0 to 100, 0 is no effect, 100 is complete control
Kindly apply the following: true if Plant response rating, Morningglory is less than 80, false in every other case.

### Prompt Dear reviewer, please state whether CCOC(=O)Oc1c(C)nn(C)c(=O)c1-c1c(C)sc2ccc(C)cc12 [Compound 82] has Plant response rating, Morningglory strictly beneath 80.
### Response false

### Prompt And the next one, CCC(=O)Oc1c(Cl)nn(C)c(=O)c1-c1c(C)sc2ccc(Cl)cc12 [Compound 111] ?
### Response true

### Prompt And the next one, Cc1ccc2ccccc2c1-c1c(O)c(Cl)nn(C)c1=O [Compound 125] ?
### Response false

### Prompt And the next one, Cc1cc(C)c2sc(C)c(-c3c(OC(=O)OC(C)C)c(C)nn(C)c3=O)c2c1 [Compound 67] ?
### Response true

### Prompt And the next one, CC(=O)Oc1c(C)nn(C)c(=O)c1-c1c(C)sc2c(C)cc(C)cc12 [Compound 27] ?
### Response false

###

Exercise: state measured Plant response rating, Corn for each of the compounds provided.
Tested on: corn (Zea mays)
Test: Test E greenhouse herbicide test, pre- and postemergence
Type: in vivo
Conditions: 125 g ai/ha, Preemergence; scale 0 to 100 (0 no effect, 100 complete control)
Source text: […]
Lab note: record the figure alone, no unit after it.

### Prompt Request the reported Plant response rating, Corn associated with CCOC(=O)Oc1c(C)nn(C)c(=O)c1-c1c(C)sc2ccc(C)cc12
### Response 0

### Prompt And the next one, C#CCOC(=O)Oc1c(C)nn(C)c(=O)c1-c1c(C)sc2ccc(C)cc12 ?
### Response 20

### Prompt And the next one, COC(=O)Oc1c(C)nn(C)c(=O)c1-c1c(C)sc2c(C)cc(C)cc12 ?
### Response 0

### Prompt And the next one, CCOC(=O)Oc1c(C)nn(C)c(=O)c1-c1c(C)sc2c(C)cc(C)cc12 ?
### Response 0

###

Tested on: mustard, wild (wild mustard, Sinapis arvensis)
Assay: Test D controlled growth environment herbicide test, pre- and postemergence
Format: in vivo
Conditions: Preemergence, 250 g ai/ha; scale 0 to 100 (0 no effect, 100 complete control)
Description: […]
MEASUREMENT KIND: Plant response rating, Mustard, Wild

### Prompt Query Plant response rating, Mustard, Wild on mustard, wild (wild mustard, Sinapis arvensis) for CC(=O)Oc1c(C)nn(C)c(=O)c1-c1c(C)cc(C)c2ccccc12 [Compound 153]
### Response 100

### Prompt And the next one, CCOC(=O)Oc1c(C)nn(C)c(=O)c1-c1c(C)sc2c(C)cc(C)cc12 [Compound 83] ?
### Response 25

### Prompt And the next one, Cc1ccc2ccccc2c1-c1c(O)c(C)nn(C)c1=O [Compound 59] ?
### Response 100

### Prompt And the next one, COc1nn(C)c(=O)c(-c2c(C)ccc3ccccc23)c1O [Compound 54] ?
### Response 100

### Prompt And the next one, CCC(=O)Oc1c(C)nn(C)c(=O)c1-c1c(C)sc2ccc(Cl)cc12 [Compound 109] ?
### Response 100

### Prompt And the next one, CC(=O)Oc1c(C)nn(C)c(=O)c1-c1ccc(F)c2ccccc12 [Compound 90] ?
### Response 90

###

Test system: oilseed rape (Brassica napus)
Experiment: Test C greenhouse herbicide test, pre- and postemergence
Type: in vivo
Conditions: postemergence, 62 g ai/ha; scale 0 to 100, 0 no effect, 100 complete control
MEASUREMENT KIND: Oilseed Rape plant response rating

### Prompt Request the reported Oilseed Rape plant response rating associated with Cc1cc(C)c2ccccc2c1-c1c(O)cnn(C)c1=O
### Response 5

### Prompt And the next one, Cc1ccc2ccccc2c1-c1c(O)cnn(C)c1=O ?
### Response 0

### Prompt And the next one, CCC(=O)Oc1c(C)nn(C)c(=O)c1-c1c(C)sc2ccc(C)cc12 ?
### Response 5

### Prompt And the next one, Cc1cc(C)c2sc(C)c(-c3c(OC(=O)OC(C)C)c(C)nn(C)c3=O)c2c1 ?
### Response 50

### Prompt And the next one, Cc1ccc2ccccc2c1-c1c(O)c(C)nn(C)c1=O ?
### Response 50

### Prompt And the next one, CC(=O)Oc1c(C)nn(C)c(=O)c1-c1c(C)oc2ccc(C)cc12 ?
### Response 0

### Prompt And the next one, COc1nn(C)c(=O)c(-c2c(C)ccc3ccccc23)c1OC(=O)OC(C)C ?
### Response 40

### Prompt And the next one, CCOC(=O)Oc1c(C)nn(C)c(=O)c1-c1c(C)ccc2ccccc12 ?
### Response 70

### Prompt And the next one, COc1ccc2ccccc2c1-c1c(O)c(C)nn(C)c1=O ?
### Response 30

### Prompt And the next one, CCOC(=O)Oc1c(C)nn(C)c(=O)c1-c1c(C)sc2c(C)cc(C)cc12 ?
### Response 0

###

Test system: corn (Zea mays)
Experiment: Test C greenhouse herbicide test, pre- and postemergence
Type: in vivo
Conditions: Preemergence, 250 g ai/ha; scale 0 to 100 (0 no effect, 100 complete control)
Quick rule: Corn plant response rating of at least 20 means class 1, below that means class 0.

### Prompt API: above_or_equal(metric=Corn plant response rating, cutoff=20) for item CCOC(=O)Oc1c(C)nn(C)c(=O)c1-c1c(C)ccc2ccccc12 [Compound 73]
### Response class 1

### Prompt And the next one, Cc1cc(C)c2sc(C)c(-c3c(OC(=O)OC(C)C)c(C)nn(C)c3=O)c2c1 [Compound 67] ?
### Response class 0

### Prompt And the next one, Cc1ccc2ccccc2c1-c1c(O)c(Cl)nn(C)c1=O [Compound 125] ?
### Response class 1

### Prompt And the next one, CCOC(=O)Oc1c(C)nn(C)c(=O)c1-c1c(C)sc2ccc(C)cc12 [Compound 82] ?
### Response class 1

### Prompt And the next one, C#CCOC(=O)Oc1c(C)nn(C)c(=O)c1-c1c(C)sc2ccc(C)cc12 [Compound 87] ?
### Response class 0

### Prompt And the next one, CC(=O)Oc1c(Br)nn(C)c(=O)c1-c1c(C)ccc2ccccc12 [Compound 129] ?
### Response class 1

### Prompt And the next one, CCOC(=O)Oc1c(C)nn(C)c(=O)c1-c1c(C)sc2c(C)cc(C)cc12 [Compound 83] ?
### Response class 0

###

System: ragweed (common ragweed, Ambrosia elatior)
Assay: Test E greenhouse herbicide test, pre- and postemergence
Assay type: in vivo
Conditions: Postemergence, 31 g ai/ha; visual, scale 0 no effect to 100 complete control
MEASUREMENT KIND: Plant response rating, Ragweed
Lab note: record the figure alone, no unit after it.

### Prompt Request the reported Plant response rating, Ragweed associated with Cc1cc(C)c2sc(C)c(-c3c(OC(=O)OCCCl)c(C)nn(C)c3=O)c2c1
### Response 50

### Prompt And the next one, CCC(=O)Oc1c(C)nn(C)c(=O)c1-c1c(C)sc2ccc(C)cc12 ?
### Response 90

### Prompt And the next one, CC(=O)Oc1c(C)nn(C)c(=O)c1-c1c(C)cc(C)c2ccccc12 ?
### Response 75

### Prompt And the next one, COC(=O)Oc1c(C)nn(C)c(=O)c1-c1c(C)sc2c(C)cc(C)cc12 ?
### Response 60

### Prompt And the next one, CCOC(=O)Oc1c(C)nn(C)c(=O)c1-c1c(C)sc2c(C)cc(C)cc12 ?
### Response 60

###

System: Italian ryegrass (Lolium multiflorum)
Assay: Test E greenhouse herbicide test, pre- and postemergence
Assay type: in vivo
Details: 125 g ai/ha, Postemergence; scale 0 to 100 (0 no effect, 100 complete control)
MEASUREMENT KIND: Plant response rating, Ryegrass, Italian
Lab note: record the figure alone, no unit after it.

### Prompt Request the reported Plant response rating, Ryegrass, Italian associated with Cc1ccc2sc(C)c(-c3c(O)c(C)nn(C)c3=O)c2c1
### Response 65

### Prompt And the next one, CCC(=O)Oc1c(C)nn(C)c(=O)c1-c1c(C)sc2c(C)cc(C)cc12 ?
### Response 75

### Prompt And the next one, CCOC(=O)Oc1c(C)nn(C)c(=O)c1-c1c(C)sc2ccc(C)cc12 ?
### Response 75

### Prompt And the next one, COC(=O)Oc1c(C)nn(C)c(=O)c1-c1c(C)sc2c(C)cc(C)cc12 ?
### Response 75

###

Test system: kochia (Kochia scoparia)
Experiment: Test A greenhouse herbicide test, pre- and postemergence
Type: in vivo
Details: Preemergence, 125 g ai/ha; 0 to 100 scale where 0 is no effect and 100 is complete control
Kindly apply the following: true if Kochia plant response rating is less than 30, false in every other case.

### Prompt Dear reviewer, please state whether CCC(=O)Oc1c(C)nn(C)c(=O)c1-c1c(C)sc2ccc(C)cc12 [Compound 42] has Kochia plant response rating strictly beneath 30.
### Response false

### Prompt And the next one, COc1nn(C)c(=O)c(-c2c(C)sc3ccccc23)c1OC(C)=O [Compound 141] ?
### Response true

### Prompt And the next one, CC(=O)Oc1c(C#N)nn(C)c(=O)c1-c1c(C)ccc2ccccc12 [Compound 98] ?
### Response true

### Prompt And the next one, CCc1nn(C)c(=O)c(-c2c(C)oc3ccccc23)c1O [Compound 117] ?
### Response true

### Prompt And the next one, Cc1nn(C)c(=O)c(-c2c(C)sc3ccc(Cl)cc23)c1O [Compound 104] ?
### Response false

### Prompt And the next one, Cc1cc(C)c2c(-c3c(OC(=O)C(C)(C)C)c(C)nn(C)c3=O)c(C)sc2c1 [Compound 45] ?
### Response true
